- procedure text: Selectivity index, ratio of IC50 for cytotoxicity against rat L6 cells to IC50 for antileishmanial activity against Leishmania donovani MHOM/ET/67/L82 amastigotes
- Format: toxicity, cell-based
- condition details: read-out: Ratio IC50
quantity: selectivity ratio

Input line: Look up selectivity ratio for this compound: C/C=C/c1cc(OC)c2c(c1)[C@H](C)[C@@H](c1ccc(O)c(OC)c1)O2 (racemic) [LICARIN A]
Output line: 1

Input line: Please give the measured selectivity ratio for this compound: COc1cc([C@H]2Oc3c(OC)cc(/C=C/C(=O)CC(C)C)cc3[C@@H]2C(=O)CC(C)C)ccc1O (racemic)
Output line: 1.4

Input line: Reported selectivity ratio, compound OC[C@H]1c2cc(-c3cccnc3F)ccc2O[C@@H]1c1ccc(O)cc1 (racemic) : ____
Output line: 2.8

Input line: # lookup: selectivity ratio of COc1cc([C@H]2Oc3ccc(Br)cc3[C@@H]2CO)c(Br)cc1O (racemic)
Output line: 3.8

Input line: Item OC[C@H]1c2ccccc2O[C@@H]1c1ccc(O)cc1 (racemic) has what recorded selectivity ratio?
Output line: 1.4

Input line: Would you mind telling me what selectivity ratio value was observed for CC(C)(C)OC(=O)/C=C/c1ccc2c(c1)[C@H](C(=O)OC(C)(C)C)[C@@H](c1ccc(OC(C)(C)C)cc1)O2 (racemic) ?
Output line: 15.5

Input line: Please look up its selectivity ratio: COc1cc([C@H]2Oc3c(OC)cc(/C=C/C(=O)OC(C)C)cc3[C@@H]2C(=O)OC(C)C)ccc1O (racemic)
Output line: 2.6

Input line: // query selectivity ratio value for entry OC[C@H]1c2ccccc2O[C@@H]1c1ccccc1Br (racemic)
Output line: 1.2

---

- procedure text: Selectivity index, ratio of IC50 for cytotoxicity against rat L6 cells to IC50 for antileishmanial activity against Leishmania donovani MHOM/ET/67/L82 amastigotes
- Type: toxicity, cell-based
- condition details: read-out: Ratio IC50
quantity: selectivity ratio
Simply state the number, no unit and no words.

Input line: Which selectivity ratio reading was recorded for the compound COc1ccc([C@H]2Oc3ccc(/C=C/C(=O)OC(C)(C)C)cc3[C@@H]2CO)cc1OC (racemic) ?
Output line: 2.1

Input line: Which selectivity ratio is listed for OC[C@H]1c2cc(Br)ccc2O[C@@H]1c1ccc(O)c(Br)c1 (racemic) ?
Output line: 3

Input line: Fill in: selectivity ratio of COc1ccc([C@H]2Oc3ccccc3[C@@H]2CO)cc1OC (racemic) is ___
Output line: 0.4

Input line: May I ask what selectivity ratio has been recorded for C=CCOC(=O)/C=C/c1cc(O)c2c(c1)[C@H](C(=O)OCC=C)[C@@H](c1ccc(O)c(O)c1)O2 (racemic) ?
Output line: 1

Input line: Returns the measured selectivity ratio for the input compound. Input: COc1cc([C@H]2Oc3c(OC)cc(/C=C/C(=O)O)cc3[C@@H]2C(=O)O)ccc1O (racemic)
Output line: 37.6

Input line: # get_value(readout='selectivity ratio', item= COc1cc([C@H]2Oc3ccc(Br)cc3[C@@H]2C)ccc1O (racemic) )
Output line: 0.5

Input line: Given COc1cc([C@H]2Oc3ccc(Br)cc3[C@@H]2C)c(Br)cc1O (racemic) , state its recorded selectivity ratio.
Output line: 1.2

Input line: Fill blank: measured selectivity ratio of the compound CCCCCCCCOC(=O)/C=C/c1cc(O)c2c(c1)[C@H](C(=O)OCCCCCCCC)[C@@H](c1ccc(O)c(O)c1)O2 (racemic) is ____.
Output line: 0.8

---

I'd appreciate it if you could supply pIC50 values for the items below.
- Test system: L6
- procedure text: Cytotoxicity against rat L6 cells assessed as reduction in cell viability incubated for 70 hrs by resazurin staining based inverted microscopic analysis
- condition details: L6, 70 h
When answering, recall that pIC50 equals minus log10 of the concentration in mol/L, and write that number alone.

Input line: So what does the record say about pIC50 for COc1cc([C@H]2Oc3c(OC)cc(/C=C/C(=O)O)cc3[C@@H]2C(=O)O)ccc1O (racemic) ?
Output line: 3.59

Input line: Query: pIC50; subject: COc1cc([C@H]2Oc3ccc(Cl)cc3[C@@H]2C)ccc1O (racemic)
Output line: 4.26

Input line: Can you share its pIC50? I mean this compound: COc1cc([C@H]2Oc3ccccc3[C@@H]2C)cc(I)c1O (racemic)
Output line: 4.33

Input line: What value of pIC50 has been recorded for this entry: CC(C)OC(=O)/C=C/c1ccc2c(c1)[C@H](C(=O)OC(C)C)[C@@H](c1ccc(O)cc1)O2 (racemic)
Output line: 4.84

Input line: Data request, read-out pIC50, for OC[C@H]1c2ccccc2O[C@@H]1c1ccccc1Br (racemic)
Output line: 4.60

---

- System: Leishmania donovani
- procedure text: Antileishmanial activity against Leishmania donovani MHOM/ET/67/L82 amastigotes assessed as growth inhibition incubated for 70 hrs by resazurin based inverted microscopic analysis
- Assay type: functional, organism-based
- condition details: Leishmania donovani, MHOM/ET/67/L82, 70 h
pIC50: −log10 of the molar value.
pIC50 of 5 or higher: satisfied. Under 5: not satisfied.

Input line: Exam item: decide whether the reported pIC50 for COc1ccc([C@H]2Oc3ccc(/C=C/C(C)=O)cc3[C@@H]2C)cc1 (racemic) is at least 5.
Output line: not satisfied

Input line: Assess whether reported pIC50 for COc1cc([C@H]2Oc3ccccc3[C@@H]2CO)ccc1O (racemic) sits at 5 or higher.
Output line: not satisfied

Input line: hey, is pIC50 for this one >= 5? COc1ccc([C@H]2Oc3ccc(Br)cc3[C@@H]2CO)cc1OC (racemic)
Output line: not satisfied

Input line: Has OC[C@H]1c2cc(-c3cccnc3F)ccc2O[C@@H]1c1ccc(O)cc1 (racemic) a recorded pIC50 greater than or equal to 5?
Output line: not satisfied

Input line: Does the reported pIC50 for COc1ccc([C@H]2Oc3ccccc3[C@@H]2COC(C)=O)cc1 (racemic) fall at or above the 5 mark?
Output line: not satisfied

Input line: Check this compound for pIC50 at or above 5: COc1ccc([C@H]2Oc3ccccc3[C@@H]2CO)cc1 (racemic)
Output line: not satisfied

Input line: Tell me whether pIC50 is at least 5 here: CC(C)NC(=O)/C=C/c1cc(O)c2c(c1)[C@H](C(=O)NC(C)C)[C@@H](c1ccc(O)c(O)c1)O2 (racemic)
Output line: not satisfied

Input line: Quick check, pIC50 >= 5? CC(C)(C)CC(=O)/C=C/c1cc(O)c2c(c1)[C@H](C(=O)CC(C)(C)C)[C@@H](c1ccc(O)c(O)c1)O2 (racemic)
Output line: satisfied

Input line: Hi team, for COc1cc([C@H]2Oc3c(OC)cc(/C=C/C(=O)CC(C)C)cc3[C@@H]2C(=O)CC(C)C)ccc1O (racemic) , is the recorded pIC50 at or above 5?
Output line: satisfied

Input line: Determine whether measured pIC50 meets or exceeds 5 for CC(C)OC(=O)/C=C/c1cc(O)c2c(c1)[C@H](C(=O)OC(C)C)[C@@H](c1ccc(O)c(O)c1)O2 (racemic)
Output line: satisfied

Input line: Dear colleague, could you confirm whether OC[C@H]1c2cc(Br)ccc2O[C@@H]1c1ccc(O)cc1 (racemic) has pIC50 at or above 5?
Output line: not satisfied

Input line: Record COc1cc([C@H]2Oc3c(OC)cc(/C=C/C(=O)O)cc3[C@@H]2C(=O)O)ccc1O (racemic) ; criterion: pIC50 no lower than 5. Met?
Output line: satisfied

Input line: In plain terms: is recorded pIC50 at least 5 for CC(C)(C)OC(=O)/C=C/c1ccc2c(c1)[C@H](CO)[C@@H](c1ccc(O)cc1)O2 (racemic) ?
Output line: not satisfied

Input line: Could you tell me if the measured pIC50 of OC[C@H]1c2ccccc2O[C@@H]1c1ccc(O)cc1 (racemic) reaches 5 or more?
Output line: not satisfied

Input line: Please check the record CC(C)OC(=O)/C=C/c1ccc2c(c1)[C@H](C(=O)OC(C)C)[C@@H](c1ccc(O)cc1)O2 (racemic) and state if its pIC50 is at or above 5.
Output line: satisfied

Input line: Check this compound for pIC50 at or above 5: CCOC(=O)/C=C/c1cc(O)c2c(c1)[C@H](C(=O)OCC)[C@@H](c1ccc(O)c(O)c1)O2 (racemic)
Output line: satisfied

Input line: Does the reported pIC50 for OC[C@H]1c2cc(Br)ccc2O[C@@H]1c1ccc(O)c(O)c1 (racemic) fall at or above the 5 mark?
Output line: not satisfied

Input line: Kindly determine if pIC50 recorded for COc1cc([C@H]2Oc3c(OC)cc(/C=C/C(=O)OC(C)(C)C)cc3[C@@H]2C(=O)OC(C)(C)C)ccc1O (racemic) is above or exactly 5.
Output line: satisfied

Input line: In plain terms: is recorded pIC50 at least 5 for OC[C@H]1c2ccccc2O[C@@H]1c1ccc(O)c(Br)c1 (racemic) ?
Output line: not satisfied

Input line: Record CC(C)OC(=O)/C=C/c1cc(O)c2c(c1)[C@@H](C(=O)OC(C)C)[C@H](c1ccc(O)c(O)c1)O2 ; criterion: pIC50 no lower than 5. Met?
Output line: satisfied

Input line: I'd appreciate it if you could say whether COc1cc([C@H]2Oc3ccc(Cl)cc3[C@@H]2C)ccc1O (racemic) has pIC50 at least equal to 5.
Output line: not satisfied

Input line: Can COc1ccc([C@H]2Oc3ccc(C=O)cc3[C@@H]2C)cc1 (racemic) be said to have pIC50 at or above 5?
Output line: not satisfied

Input line: Hi team, for CC(C)(C)OC(=O)/C=C/c1cc(F)c2c(c1)[C@H](C(=O)OC(C)(C)C)[C@@H](c1ccc(O)c(F)c1)O2 (racemic) , is the recorded pIC50 at or above 5?
Output line: satisfied

Input line: Reported pIC50 reaches at least 5 for COc1cc([C@H]2Oc3c(OC)cc(/C=C/C(=O)NCCO)cc3[C@@H]2C(=O)NCCO)ccc1O (racemic) ?
Output line: not satisfied

Input line: Item COc1cc([C@H]2Oc3c(OC)cc(/C=C/C(=O)OC(C)C)cc3[C@@H]2C(=O)OC(C)C)ccc1O (racemic) with pIC50 of 5 or above?
Output line: satisfied
